Where these numbers come from: ChEMBL document CHEMBL3108769

# assay-name: Inhibition of phosphotidylserine-stimulated sheep brain dynamin 1 GTPase activity assessed as inhibition of phosphate release from GTP after 30 mins by malachite green reagent method
# Set-up: species or system Ovis aries
measure: IC50 (µM)

Use these answered entries as a reference point.
O=C1c2cccc3cc(S(=O)(=O)O)cc(c23)C(=O)N1Cc1ccc(F)cc1: 306
O=C1c2cccc3cc(S(=O)(=O)O)cc(c23)C(=O)N1Cc1ccc(Cl)cc1: 111
O=C(O)c1ccc(CN2C(=O)c3cccc4cc(S(=O)(=O)O)cc(c34)C2=O)cc1: 185

A: O=C1c2cccc3cc(S(=O)(=O)O)cc(c23)C(=O)N1Cc1ccc([N+](=O)[O-])cc1
B: Nc1cccc(CN2C(=O)c3cccc4cc(S(=O)(=O)O)cc(c34)C2=O)c1
Param metric = IC50; output whichever of A , B has the minimum value. Please respond with the label that marks your chosen entry. A
(A: 49 µM, B: 264 µM)

====

# target-or-test-system: Clathrin heavy chain 1 (Homo sapiens)
# Sequence (Q00610 whole entry): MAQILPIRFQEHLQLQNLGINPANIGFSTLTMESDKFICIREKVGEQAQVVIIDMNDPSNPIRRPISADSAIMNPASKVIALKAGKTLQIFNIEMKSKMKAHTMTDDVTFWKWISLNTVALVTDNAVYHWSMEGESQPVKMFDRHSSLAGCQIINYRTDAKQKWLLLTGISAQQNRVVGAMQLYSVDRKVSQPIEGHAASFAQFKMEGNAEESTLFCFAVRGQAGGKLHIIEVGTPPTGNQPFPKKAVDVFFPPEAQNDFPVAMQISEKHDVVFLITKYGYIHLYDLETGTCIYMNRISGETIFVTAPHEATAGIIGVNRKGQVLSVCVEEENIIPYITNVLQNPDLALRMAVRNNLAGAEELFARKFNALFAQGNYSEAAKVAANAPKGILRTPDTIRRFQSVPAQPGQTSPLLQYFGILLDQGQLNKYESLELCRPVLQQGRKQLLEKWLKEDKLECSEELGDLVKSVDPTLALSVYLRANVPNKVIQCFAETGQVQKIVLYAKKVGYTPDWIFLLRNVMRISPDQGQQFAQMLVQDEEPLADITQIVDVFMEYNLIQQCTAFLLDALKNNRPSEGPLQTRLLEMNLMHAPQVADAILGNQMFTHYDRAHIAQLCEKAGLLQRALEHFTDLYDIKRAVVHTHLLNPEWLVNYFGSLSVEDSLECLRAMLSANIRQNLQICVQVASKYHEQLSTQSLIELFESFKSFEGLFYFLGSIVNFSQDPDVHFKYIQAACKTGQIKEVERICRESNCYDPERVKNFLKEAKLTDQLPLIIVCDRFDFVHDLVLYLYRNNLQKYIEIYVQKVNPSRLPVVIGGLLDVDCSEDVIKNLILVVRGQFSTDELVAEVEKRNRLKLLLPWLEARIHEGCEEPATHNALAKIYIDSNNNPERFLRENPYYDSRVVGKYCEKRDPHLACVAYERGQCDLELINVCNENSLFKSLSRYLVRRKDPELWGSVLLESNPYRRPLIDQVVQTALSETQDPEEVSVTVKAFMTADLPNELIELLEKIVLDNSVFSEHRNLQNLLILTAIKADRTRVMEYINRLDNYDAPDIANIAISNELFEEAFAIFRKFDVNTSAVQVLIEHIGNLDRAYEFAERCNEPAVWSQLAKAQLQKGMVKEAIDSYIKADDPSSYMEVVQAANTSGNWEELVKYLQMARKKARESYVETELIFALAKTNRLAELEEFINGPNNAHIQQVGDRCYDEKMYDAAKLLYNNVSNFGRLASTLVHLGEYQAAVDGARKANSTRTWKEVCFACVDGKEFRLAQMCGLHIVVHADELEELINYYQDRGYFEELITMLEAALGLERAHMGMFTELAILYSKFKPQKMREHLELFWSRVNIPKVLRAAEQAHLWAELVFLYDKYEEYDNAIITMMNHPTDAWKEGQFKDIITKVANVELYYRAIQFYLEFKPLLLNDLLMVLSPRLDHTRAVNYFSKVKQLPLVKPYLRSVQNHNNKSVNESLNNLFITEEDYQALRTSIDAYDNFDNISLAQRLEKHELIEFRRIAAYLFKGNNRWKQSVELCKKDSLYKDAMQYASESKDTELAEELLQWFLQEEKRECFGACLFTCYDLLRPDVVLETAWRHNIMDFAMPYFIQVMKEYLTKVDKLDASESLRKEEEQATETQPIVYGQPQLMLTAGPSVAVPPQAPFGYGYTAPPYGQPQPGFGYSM
# assay-name: Inhibition of recombinant GST-tagged clathrin heavy chain (unknown origin) at 100 uM after 1 hr by ELISA
Calls of active or inactive are those of the source. The rule behind the calls is not given here.
measure: inhibition

Use these answered entries as a reference point.
O=C1c2cccc3cc(S(=O)(=O)O)cc(c23)C(=O)N1Cc1ccc([N+](=O)[O-])cc1: inactive
Nc1ccc(CN2C(=O)c3cccc4c(N)ccc(c34)C2=O)cc1: inactive
Nc1ccc(CN2C(=O)c3cccc4c(S(=O)(=O)O)ccc(c34)C2=O)cc1: inactive
COc1cc2c3c(cccc3c1)C(=O)N(Cc1ccc(N)cc1)C2=O: inactive
Nc1ccc(CN2C(=O)c3cccc4cccc(c34)C2=O)cc1: inactive

Sure, the documented inhibition for `Nc1ccc(CN2C(=O)c3cccc4cc(Br)cc(c34)C2=O)cc1` is inactive

Sure, the documented inhibition for `Nc1ccc(CN2C(=O)c3cccc4c(Br)ccc(c34)C2=O)cc1` is inactive

Sure, the documented inhibition for `Nc1ccc(N2C(=O)c3cccc4cc(S(=O)(=O)O)cc(c34)C2=O)cc1` is inactive

Sure, the documented inhibition for `Nc1ccc(CN2C(=O)c3cccc4cc(N)cc(c34)C2=O)cc1` is inactive

Sure, the documented inhibition for `Nc1ccc(CN2C(=O)c3cccc4c(Cl)ccc(c34)C2=O)cc1` is inactive

Sure, the documented inhibition for `Nc1ccc(CN2C(=O)c3cccc4cc([N+](=O)[O-])cc(c34)C2=O)cc1` is inactive

Sure, the documented inhibition for `Nc1ccc(CN2C(=O)c3cccc4cc(O)cc(c34)C2=O)cc1` is inactive

Sure, the documented inhibition for `Nc1ccc(CN2C(=O)c3cc([N+](=O)[O-])cc4cc([N+](=O)[O-])cc(c34)C2=O)cc1` is inactive

Sure, the documented inhibition for `Nc1ccc(CN2C(=O)c3cccc4c([N+](=O)[O-])ccc(c34)C2=O)cc1` is inactive

====

# target-or-test-system: Clathrin heavy chain 1 (Homo sapiens)
# assay-name: Inhibition of recombinant GST-tagged clathrin heavy chain (unknown origin) after 1 hr by ELISA
measure: pIC50
The value called pIC50 is obtained by taking minus log10 of the concentration in mol/L.

Item: `CCCN1C(=O)c2cccc3c(N)c(S(=O)(=O)O)cc(c23)C1=O` | System: Clathrin heavy chain 1 (Homo sapiens) | pIC50: 3.92
